measurement_target: d-enCas12a-Ultra (Acidaminococcus sp., UniProt U2UMQ6 1-1307, E174R;S542R;K548R;M537R;F870L;D908A;E993A;D1235A)
measurement_protocol: Spec-seq (native PAGE EMSA with sequencing of bound and unbound); 25 mM Tris-HCl pH 7.4, 150 mM KCl, 5 mM MgCl2, 10% glycerol, 1 mM DTT, 40 ng/uL salmon sperm DNA; 400 nM Cas12a, 480 nM crRNA, 50 nM library, 37 C 1 h; native PAGE at room temperature; high values mean tight binding;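 further: relative affinity from the bound to unbound sequence frequency ratio in Spec-seq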
assay_setup: protein: recombinant
endpoint_name: binding signal (lnKA)
Answer format: numeric, lnKA implied, no suffix.

## Input Quick one: binding signal for TGCA (dsDNA) DNA 1: GCTATCTAGTGCTCAGTACGCACTGTGCAAGGAAACTTCTGGCAGGACCAGGTCATGAGATCGGAAGAGCACACGTCTGAACTCCAGTCA DNA 2: TGACTGGAGTTCAGACGTGTGCTCTTCCGATCTCATGACCTGGTCCTGCCAGAAGTTTCCTTGCACAGTGCGTACTGAGCACTAGATAGC RNA: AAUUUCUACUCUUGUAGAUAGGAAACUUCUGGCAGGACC ?
## Output -0.483

## Input Quick one: binding signal for ATAT (dsDNA) DNA 1: GCTATCTAGTGCTCAGTACGCACTGATATAGGAAACTTCTGGCAGGACCAGGTCATGAGATCGGAAGAGCACACGTCTGAACTCCAGTCA DNA 2: TGACTGGAGTTCAGACGTGTGCTCTTCCGATCTCATGACCTGGTCCTGCCAGAAGTTTCCTATATCAGTGCGTACTGAGCACTAGATAGC RNA: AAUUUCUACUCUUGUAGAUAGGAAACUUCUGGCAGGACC ?
## Output -3.33
